# Test system: OVCAR-5 ovarian
# ASSAY PROCEDURE: NCI-60 one-dose screen, 48 h (100 = growth as untreated, 0 = no growth, -100 = all killed)
# RUN CONDITIONS: 10 µM unless noted
About 83,000 compounds went through this panel and 20% of them were active in at least one assay; those are over-represented in the sample as a whole.
Is growth at least 80%? Then 1 (yes). If not, 0 (no).

CC(=O)C1=C(O)C=C2Oc3c(C(=O)/C=C/c4cc(C(F)(F)F)cc(C(F)(F)F)c4)c(O)c(C)c(O)c3[C@]2(C)C1=O ... 0 (no)
COc1ccc(-c2cn3c(-c4ccc(OC)cc4)cnc3c(Oc3ccc4c(C)cc(=O)oc4c3)n2)cc1 ... 1 (yes)
CCOC(=O)c1c2c(n3ccc(NC(=O)CCN4CCCCC4)cc13)C(=O)c1ncccc1C2=O ... 0 (no)
CCOC(=O)c1c2c(n3ccc(NC(=O)CCN4CCOCC4)cc13)C(=O)c1ncccc1C2=O ... 1 (yes)
CN1CCN(Cc2ccc(NC(=O)c3cncc(C#Cc4cnc(N)c5cccnc45)c3)cc2C(F)(F)F)CC1 ... 0 (no)
Nc1c(C(=O)Nc2cccc3c2OCCO3)sc2nc3c(cc12)CN(Cc1ccccc1)CC3 ... 1 (yes)
COc1ccc(-c2cc(/C=C3\C(=O)Nc4ccc(Cl)cc43)[nH]n2)cc1 ... 1 (yes)
CCCNc1nc(SC)nc(-c2cccc(N)c2)c1C#N ... 1 (yes)

Query block: Check the entry `O=C(N/N=C/c1ccc(O)cc1O)c1cccnc1` : does growth equal or exceed 80%?
Result block: 0 (no)

----------
# System: OVCAR-4 ovarian
# ASSAY PROCEDURE: NCI-60 one-dose screen, 48 h
# RUN CONDITIONS: 10 µM unless noted
Compounds without any hit were thinned out: in the full panel of roughly 83,000, 20% have a hit. Activity calls are given as the source filed them. The calls were made as follows: active = growth percent below 10; inactive = the rest.
// allowed return values: TRUE = active, FALSE = inactive

O=C1C2CC=CCC2C(=O)N1CNc1ccc(Cl)cc1 (centres undefined) ... FALSE
Nc1cc(-c2nc3sccn3c2-c2ccnc(NCCCNS(=O)(=O)c3ccc(F)cc3)n2)ccc1F ... FALSE
CCc1ccc(C(c2ccc(CC)cc2)C(Cl)(Cl)CCl)cc1 ... FALSE
CN(C)CC(=O)Nc1ccc(Cn2nnc3c2C(=O)c2nnn(Cc4ccc(NC(=O)CN(C)C)cc4)c2C3=O)cc1 ... TRUE

Query block: Fill in: this test's call for `O=C(CCCN1CCOCC1)Nc1ccc(Cn2nnc3c2C(=O)c2nnn(Cc4ccc(NC(=O)CCCN5CCOCC5)cc4)c2C3=O)cc1` is ___
Result block: TRUE

Query block: Fill in: this test's call for `CCCC(=O)Oc1ccc(/C(=C(/CC)Cc2ccccc2)c2ccc(OCCN3CCCC3)cc2)cc1` is ___
Result block: FALSE

Query block: Fill in: this test's call for `CCN(CC)CC(C)(C)C(=O)/C=C/c1ccccc1` is ___
Result block: FALSE

Query block: Fill in: this test's call for `CN(C)CCOc1ccc(-c2nc3ccc(-c4nc5ccc(N6CCN(C)CC6)cc5[nH]4)cc3[nH]2)cc1` is ___
Result block: FALSE

Query block: Fill in: this test's call for `COc1cc(NC(N)=NCC(C)(C)COc2ccc(C(F)(F)F)cc2)cnc1C#N` is ___
Result block: FALSE

----------
# Test system: M14 melanoma
# ASSAY PROCEDURE: NCI-60 one-dose screen, 48 h (100 = growth as untreated, 0 = no growth, -100 = all killed)
# RUN CONDITIONS: 10 µM unless noted
The panel holds about 83,000 compounds, 20% with a hit somewhere; the sample as a whole holds those more often.
For each of the compounds below, state its growth.
One number for each entry, in %.

Use these answered entries as a reference point.
CN1CCOCCOCCOc2ccccc2NC(=O)c2nc(cnc2N)-c2ccc(cc2)S1(=O)=O ... 26.9
COC1=CC(=O)C(OC)=C(OC)C1=O ... 93.2
NS(=O)(=O)c1ccc(Nc2nc3n[nH]c(Nc4ccccc4)c3c(=O)[nH]2)cc1 ... 94.2

Go through the items and report each one's growth.
1. Cc1ccc(NC(=O)c2sc3nc4c(cc3c2N)C(=O)CCC4)cc1C
2. C[C@H](CCC(=O)O)[C@H]1CC[C@H]2[C@@H]3CC[C@@H]4/C(=C\c5ccco5)C(=O)/C(=C\c5ccco5)C[C@]4(C)[C@H]3CC[C@]12C
3. c1c2c(cc3c1OCO3)Cc1cc3c(cc1Cc1cc4c(cc1C2)OCO4)OCO3

Result block:
1: 8.39; 2: 52.5; 3: 104

----------
# Tested on: HCT-15 colon
# ASSAY PROCEDURE: NCI-60 one-dose screen, 48 h
# RUN CONDITIONS: 10 µM unless noted
About 83,000 compounds went through this panel and 20% of them were active in at least one assay; those are over-represented in the sample as a whole. Active and inactive are the calls of the source. The calls were made as follows: active = growth percent below 10; inactive = the rest.
// allowed return values: yes for active, no for inactive

Reference set (4 entries):
CCn1cc2c(cc1=O)-c1nc3ccccc3c3ccnc(c13)C2=O ... no
O=c1c2c3c(sc2n2c(CCl)nnc2n1Cc1ccccc1)CCCC3 ... yes
Cc1cc(Cl)ccc1Nc1nc(C(F)(F)F)ccc1C(=O)N/N=C/c1ccc(F)cc1 ... yes
O=C1Nc2ccccc2C12CC(c1ccccc1)=NN2 (stereo not given) ... no

Consider the additional compound presented here.
Query block: Fill in: this test's call for `COc1ccc(-c2nn(-c3ccccc3)cc2/C=C/C(=O)OCc2cn(-c3ccc(F)c(Cl)c3)nn2)cc1` is ___
Result block: no

----------
For each of the molecules below, state its growth.
# System: HCC-2998 colon
# ASSAY PROCEDURE: NCI-60 one-dose screen, 48 h (100 = growth as untreated, 0 = no growth, -100 = all killed)
# RUN CONDITIONS: 10 µM unless noted
# Experimental: Growth inhibition of the HCC-2998 human tumor cell line is measured as a screen for anti-cancer activity. Cells are grown in 96 well plates and exposed to the test compound for 48 hours. Compounds are tested at a single concentration, which is 10^-5 M for most compounds. The reported endpoint is percent growth (GI% or GIPRCNT), where numbers from 0 - 100% represent growth inhibition, and numbers from -100% - 0 represent cell death. For example, a value of 40 represents 60% growth inhibition. […]
Compounds without any hit were thinned out: in the full panel of roughly 83,000, 20% have a hit.
Numbers only, in %.

COc1ccc2nc3cc(Cl)ccc3c(N3CCN(c4nccc(Nc5ccccc5)n4)CC3)c2c1 ... 87.6
COc1cc(C2C(C(=O)c3cccs3)=C(O)C(=O)N2CCN2CCOCC2)cc(OC)c1OC (stereo unspecified) ... 101

Go through the items and report each one's growth.
1. O=C1Nc2ccccc2/C1=C/C(=N/c1nnc(-c2ccc(Cl)cc2)s1)c1ccccc1
2. Cc1ccccc1CCO

Result block:
[99.8, 92.6]

Go through the items and report each one's growth.
1. COc1ccc(C(=O)COc2ccc(/C=C3\Oc4ccc(Cl)cc4C3=O)cc2)cc1
2. CCOC(=S)SCc1ccc(Cl)cc1

Result block:
[111, 131]

----------
For each of the compounds below, state its growth.
# System: EKVX NSCLC
# ASSAY PROCEDURE: NCI-60 one-dose screen, 48 h (100 = growth as untreated, 0 = no growth, -100 = all killed)
# RUN CONDITIONS: 10 µM unless noted
The panel holds about 83,000 compounds, 20% with a hit somewhere; the sample as a whole holds those more often. Activity calls are given as the source filed them. How the source made its calls: active means growth percent below 10; inactive means the rest.

Go through the items and report each one's growth.
1. CCN(CC)CCCNc1cc(OC)cc2nc3cc(Cl)ccc3nc12
2. COc1ccc(-c2cc(C(=O)N=Nc3c(O)[nH]c4ccccc34)no2)cc1
3. COc1ccc2[nH]c(=O)c(/C=C/C(=O)c3ccc(Nc4nccc(-c5ccc6ccccc6c5)n4)cc3)cc2c1
4. O=C1NC(=O)C(CC(=O)n2c(-c3ccccc3)nc3ccccc32)C(=O)N1
5. CC(=O)Nc1ccc2c(c1)c(NC(C)=O)nn2C(=O)Nc1ccc(Cc2ccccc2)cc1
6. COc1ccc(C(=O)COc2ccc(/C=C3\Oc4ccc(Cl)cc4C3=O)cc2)cc1
7. COc1cc(/C=N\NC(=O)CN2CCN(c3cc4c(cc3F)c(=O)c(C(=O)N/N=C/c3ccc(O)c(OC)c3)cn4C3CC3)CC2)ccc1O
8. COc1ccc(-c2c3c(nc4n[nH]c(-c5ccc(Cl)cc5)c24)-c2ccccc2C(=O)C3=O)cc1

Result block:
["0.555% (active)", "97.4% (inactive)", "107% (inactive)", "93.6% (inactive)", "71.3% (inactive)", "86.8% (inactive)", "84.3% (inactive)", "59% (inactive)"]

Go through the items and report each one's growth.
1. O=C1C(=O)N(CCCCn2cc(CO)nn2)c2ccccc21
2. O=C1c2cccnc2C(=O)c2c1c(C(=O)OCCN1CCOCC1)c1ccccn21
3. c1ccc(-c2nc(N3CCOCC3)c3c4c(sc3n2)CCCCC4)nc1
4. O=S(=O)(NCCCNc1cc(-c2cn(-c3ccccc3)nc2-c2cccc(O)c2)ccn1)c1ccccc1

Result block:
92.4% (inactive)
13.1% (inactive)
50.1% (inactive)
37.8% (inactive)

Go through the items and report each one's growth.
1. CCCC(=O)Oc1ccc(/C(=C(/CC)Cc2ccccc2)c2ccc(OCCN3CCCC3)cc2)cc1
2. C/C(=C(/c1ccc(O)cc1)c1ccc(OCCN2CCCC2)cc1)c1ccccc1
3. CNCc1cccc2c1OCCOCCOCCN(C)S(=O)(=O)c1ccc(cc1)-c1cnc(N)c(n1)C(=O)N2
4. Cn1c2ccccc2c2c3c(c4c5ccccc5n(CCCCCC#N)c4c21)C(=O)N(O)C3=O

Result block:
1. 81.4% (inactive)
2. 62.5% (inactive)
3. 43.6% (inactive)
4. 88.2% (inactive)

Go through the items and report each one's growth.
1. CCN(CC)CCC(=O)c1ccc(OC)c2ccccc12
2. Clc1ccc(-c2nnc(COc3ccccc3Cl)o2)cc1

Result block:
94% (inactive)
86.9% (inactive)

Go through the items and report each one's growth.
1. O=C1c2cc3c(cc2-c2c1c1cc(F)c(F)cc1c(=O)n2C[C@H](O)CO)OCO3
2. CC(C)[C@H]1COC(=O)N1[C@@H]1C(=O)N([C@@H](CCC(=O)N2CCN(C3CCCC3)CC2)C(=O)N[C@@H]2CCCc3ccccc32)[C@@H]1/C=C/c1cccc(Br)c1

Result block:
14.7% (inactive)
48.2% (inactive)
